Source of measurements: patent US12668594B2

Below is a list of entries, each paired with its recorded IC50 value.
- assay_target: JAK2-JH1 (Homo sapiens)
- Construct: recombinant purified His or GST-tagged catalytic domain for each enzyme
- Sequence (O60674 849-1124 limits assumed): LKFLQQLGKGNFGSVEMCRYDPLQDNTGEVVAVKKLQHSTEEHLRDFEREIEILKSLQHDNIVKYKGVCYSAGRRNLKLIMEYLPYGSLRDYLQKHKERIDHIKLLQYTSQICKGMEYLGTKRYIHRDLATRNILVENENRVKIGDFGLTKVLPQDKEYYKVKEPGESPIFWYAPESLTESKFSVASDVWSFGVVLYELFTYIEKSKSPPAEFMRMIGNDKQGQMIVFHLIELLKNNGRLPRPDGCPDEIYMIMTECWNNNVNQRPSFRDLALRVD
- protocol_summary: HTRF-based selectivity assay, JAK2 catalytic domain
- run_conditions: kinase domain (JH1), ATP 14.7 μM

{"molecule": "Cc1cc(Nc2cc3c(cn2)c(=O)[nH]n3-c2ccc(OC(F)(F)F)c(F)c2)nc(C)n1", "result": "> 90 µM"}

Q: Which measured IC50 value corresponds to COc1cccc(-n2[nH]c(=O)c3cnc(Nc4cc(C)nc(C)n4)cc32)c1F ?
A: > 90 µM

Q: I am curious: what IC50 value has been reported for Cc1cc(Nc2cc3c(cn2)c(=O)[nH]n3-c2ccc(OCC(F)(F)F)cc2)nc(C)n1 ?
A: > 90 µM

Q: Requested field: IC50. Item: O=C(Nc1cc2c(cn1)c(=O)[nH]n2-c1ccccc1)C1CC1
A: 30 to 90 µM

Q: Report IC50 for Cc1cc(Nc2cc3c(cn2)c(=O)[nH]n3-c2ccc(Cl)cc2)nc(C)n1 please.
A: > 90 µM

Q: // query IC50 value for entry Cc1cc(Nc2cc3c(cn2)c(=O)[nH]n3-c2cccc(F)c2)nc(C)n1
A: > 90 µM

Q: IC50 lookup needed for COc1cccc(-n2[nH]c(=O)c3cnc(Nc4cc(C)nc(C)n4)cc32)c1 , thanks.
A: 10 to 30 µM

Q: For COc1cccc(-n2[nH]c(=O)c3cnc(Nc4ccnc(C)n4)cc32)c1 , what is its reported IC50?
A: > 90 µM

* * *

# Lookup of reported IC50 keyed by entry
- assay_target: JAK1-JH1 (Homo sapiens, UniProt P23458)
- Construct: recombinant purified His or GST-tagged catalytic domain for each enzyme
- Sequence (P23458 875-1153 limits assumed): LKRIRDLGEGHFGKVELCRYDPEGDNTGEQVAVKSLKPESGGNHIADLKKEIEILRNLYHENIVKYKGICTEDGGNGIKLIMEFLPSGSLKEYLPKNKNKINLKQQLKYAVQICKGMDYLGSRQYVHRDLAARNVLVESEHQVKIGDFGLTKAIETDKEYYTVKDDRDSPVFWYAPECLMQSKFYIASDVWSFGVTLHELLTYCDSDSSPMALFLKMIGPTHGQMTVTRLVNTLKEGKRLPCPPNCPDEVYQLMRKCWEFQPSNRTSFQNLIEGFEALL
- protocol_summary: HTRF-based selectivity assay, JAK1 catalytic domain
- run_conditions: kinase domain (JH1), ATP 21.43 μM

Below: 4 compounds and their reported IC50.
{"molecule": "Cc1cc(Nc2cc3c(cn2)c(=O)[nH]n3-c2ccc(Cl)cc2)nc(C)n1", "IC50": "> 90 µM"}
{"molecule": "O=c1[nH]n(-c2ccc(OC(F)(F)F)c(F)c2)c2cc(Nc3ccc(F)cn3)ncc12", "IC50": "> 90 µM"}
{"molecule": "N#Cc1ccc(-n2[nH]c(=O)c3cnc(Nc4ccc(F)cn4)cc32)cc1Cl", "IC50": "> 90 µM"}
{"molecule": "O=C(Nc1cc2c(cn1)c(=O)[nH]n2-c1ccccc1)C1CC1", "IC50": "30 to 90 µM"}

Q: JAK1-JH1 (Homo sapiens, UniProt P23458) / IC50 / O=c1[nH]n(-c2ccccc2)c2cc(Nc3ccc(F)cn3)ncc12 : value?
A: 30 to 90 µM

Q: For the record Cc1cc(Nc2cc3c(cn2)c(=O)[nH]n3-c2ccc(OC(F)F)cc2)nc(C)n1 , what value of IC50 is listed for JAK1-JH1 (Homo sapiens, UniProt P23458)?
A: > 90 µM

Q: Param readout= IC50; system= JAK1-JH1 (Homo sapiens, UniProt P23458); entry= Cc1cc(Nc2cc3c(cn2)c(=O)[nH]n3-c2ccccc2)nc(C)n1 ; returns value.
A: > 90 µM

Q: Report IC50 for COc1cccc(-n2[nH]c(=O)c3cnc(Nc4ccnc(C)n4)cc32)c1 tested on JAK1-JH1 (Homo sapiens, UniProt P23458).
A: > 90 µM

Q: API: value(readout=IC50, system=JAK1-JH1 (Homo sapiens, UniProt P23458)) for record Cc1cc(Nc2cc3c(cn2)c(=O)[nH]n3-c2ccc(OC(F)(F)F)c(F)c2)nc(C)n1
A: > 90 µM

Q: Notebook entry, JAK1-JH1 (Homo sapiens, UniProt P23458) assay: IC50 of Cc1cc(Nc2cc3c(cn2)c(=O)[nH]n3-c2ccc(OCC(F)(F)F)cc2)nc(C)n1 = ?
A: > 90 µM

* * *

Reported pIC50 by item:
- assay_target: UniProtKB P29597
- protocol_summary: HEK-Blue IL-23 reporter assay (SEAP) for TYK2 pseudokinase inhibition
- Type: cell-based
- Design: HEK-Blue™ IL-23 and IFNα/β cells with a stably-integrated cytokine receptor and STAT3 or STAT1; host or cells: HEK-Blue IL-23 / HEK-Blue IFNα/β cells (HEK293 background)
- run_conditions: HEK-Blue IL-23 cells, 10 ng/mL human recombinant IL-23, SEAP reporter; read-out: IL23 IC50
pIC50: −log10 of the molar value.

{"molecule": "COc1cc(-n2[nH]c(=O)c3cnc(Nc4cc(C)nc(C)n4)cc32)ccc1Cl", "pIC50": "< 4.05"}

Q: Reported pIC50 for UniProtKB P29597, given CNC(=O)Nc1cc2c(cn1)c(=O)[nH]n2-c1ccccc1 ?
A: > 5.00

Q: # value lookup — system UniProtKB P29597, readout pIC50, item COc1cccc(-n2[nH]c(=O)c3cnc(Nc4ccc(C#N)cn4)cc32)c1
A: > 5.00

Q: Lab note: need pIC50 with UniProtKB P29597 for entry COc1cccc(-n2[nH]c(=O)c3cnc(Nc4ccc(F)cn4)cc32)c1F , please look it up.
A: > 5.00

Q: Report pIC50 for Cc1cc(Nc2cc3c(cn2)c(=O)[nH]n3-c2ccccc2S(C)(=O)=O)nc(C)n1 tested on UniProtKB P29597.
A: 4.52 to 5.00

* * *

- assay_target: TYK2 (Homo sapiens, UniProt P29597)
- Sequence (P29597 whole entry): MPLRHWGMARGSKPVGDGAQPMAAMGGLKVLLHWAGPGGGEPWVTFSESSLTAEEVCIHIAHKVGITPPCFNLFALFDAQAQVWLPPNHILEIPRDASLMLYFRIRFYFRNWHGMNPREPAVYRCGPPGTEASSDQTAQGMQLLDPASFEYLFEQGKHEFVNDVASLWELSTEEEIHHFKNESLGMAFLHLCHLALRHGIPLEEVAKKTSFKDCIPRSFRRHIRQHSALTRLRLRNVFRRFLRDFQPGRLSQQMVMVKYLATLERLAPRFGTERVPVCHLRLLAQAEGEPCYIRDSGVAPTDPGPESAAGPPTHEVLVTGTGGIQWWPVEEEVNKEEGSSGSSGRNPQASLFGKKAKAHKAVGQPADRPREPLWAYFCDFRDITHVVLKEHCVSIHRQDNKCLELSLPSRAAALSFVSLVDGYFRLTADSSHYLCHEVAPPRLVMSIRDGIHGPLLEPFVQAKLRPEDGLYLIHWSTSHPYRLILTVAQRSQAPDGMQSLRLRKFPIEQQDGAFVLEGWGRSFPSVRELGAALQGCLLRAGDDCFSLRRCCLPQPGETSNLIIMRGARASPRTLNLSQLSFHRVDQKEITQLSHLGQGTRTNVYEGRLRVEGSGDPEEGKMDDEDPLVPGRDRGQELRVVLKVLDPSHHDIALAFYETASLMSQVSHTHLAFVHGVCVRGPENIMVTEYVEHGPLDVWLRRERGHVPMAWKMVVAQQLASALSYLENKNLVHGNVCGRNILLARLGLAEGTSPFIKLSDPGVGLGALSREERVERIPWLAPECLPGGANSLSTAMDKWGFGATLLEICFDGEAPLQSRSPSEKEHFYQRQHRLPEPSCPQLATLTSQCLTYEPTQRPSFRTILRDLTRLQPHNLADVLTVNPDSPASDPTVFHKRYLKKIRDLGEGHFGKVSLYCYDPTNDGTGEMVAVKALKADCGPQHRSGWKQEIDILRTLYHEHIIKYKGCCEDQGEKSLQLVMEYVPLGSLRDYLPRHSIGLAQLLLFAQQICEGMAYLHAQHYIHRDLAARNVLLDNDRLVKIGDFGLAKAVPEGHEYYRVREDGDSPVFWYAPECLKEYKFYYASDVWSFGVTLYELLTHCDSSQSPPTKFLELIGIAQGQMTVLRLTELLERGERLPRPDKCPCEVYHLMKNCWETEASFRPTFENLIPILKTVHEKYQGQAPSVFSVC
- protocol_summary: HEK-Blue IL-23 reporter assay (SEAP) for TYK2 pseudokinase inhibition
- Assay type: cell-based
- Design: HEK-Blue™ IL-23 and IFNα/β cells with a stably-integrated cytokine receptor and STAT3 or STAT1; host or cells: HEK-Blue IL-23 / HEK-Blue IFNα/β cells (HEK293 background)
- run_conditions: HEK-Blue IL-23 cells, 10 ng/mL human recombinant IL-23, SEAP reporter; read-out: IL23 IC50
Measured IC50 values are reported for all entries that follow.

Q: Recorded IC50 for O=C(Nc1cc2c(cn1)c(=O)[nH]n2-c1cccc(C(F)(F)F)c1)C1CC1 , please?
A: < 10 µM

* * *

- assay_target: TYK2 (Homo sapiens)
- protocol_summary: HEK-Blue IL-23 reporter assay (SEAP) for TYK2 pseudokinase inhibition
- Assay type: cell-based
- Design: HEK-Blue™ IL-23 and IFNα/β cells with a stably-integrated cytokine receptor and STAT3 or STAT1; host or cells: HEK-Blue IL-23 / HEK-Blue IFNα/β cells (HEK293 background)
- run_conditions: HEK-Blue IL-23 cells, 10 ng/mL human recombinant IL-23, SEAP reporter; read-out: IL23 IC50
Catalogue of compounds with associated IC50

{"molecule": "COc1cccc(-n2[nH]c(=O)c3cnc(Nc4ccncn4)cc32)c1", "assay_target": "TYK2 (Homo sapiens)", "result": "< 10 µM"}
{"molecule": "COCCC(=O)Nc1cc2c(cn1)c(=O)[nH]n2-c1ccccc1", "assay_target": "TYK2 (Homo sapiens)", "result": "10 to 30 µM"}
{"molecule": "Cc1cc(Nc2cc3c(cn2)c(=O)[nH]n3-c2cccc(C(=O)NCc3ccccn3)c2)nc(C)n1", "assay_target": "TYK2 (Homo sapiens)", "result": "< 10 µM"}
{"molecule": "COc1cc(-n2[nH]c(=O)c3cnc(Nc4ccc(F)cn4)cc32)ccc1Cl", "assay_target": "TYK2 (Homo sapiens)", "result": "> 90 µM"}

Q: Give recorded IC50 with TYK2 (Homo sapiens) for the following compound: Cc1cc(Nc2cc3c(cn2)c(=O)[nH]n3-c2ccc(S(C)(=O)=O)cc2)nc(C)n1
A: 10 to 30 µM

Q: Entry COc1c(F)cccc1-n1[nH]c(=O)c2cnc(Nc3cc(C)nc(C)n3)cc21 , system TYK2 (Homo sapiens): what IC50 was measured?
A: < 10 µM

Q: Form: Entry = O=c1[nH]n(-c2ccc(C(F)(F)F)cc2)c2cc(Nc3ccc(F)cn3)ncc12 | System = TYK2 (Homo sapiens) | IC50 = ____
A: < 10 µM

Q: Query for TYK2 (Homo sapiens): what IC50 does the record show for COc1cc(-n2[nH]c(=O)c3cnc(Nc4cc(C)nc(C)n4)cc32)ccc1F ?
A: < 10 µM

* * *

- assay_target: TYK2 (Homo sapiens, UniProt P29597)
- protocol_summary: HEK-Blue IFNα/β reporter assay (SEAP) for TYK2 pseudokinase inhibition
- Assay type: cell-based
- run_conditions: HEK-Blue IFNα/β cells, 1 ng/mL human recombinant IFNα
# maps each entry to its IC50

{"compound": "Cn1cc(Nc2cc3c(cn2)c(=O)[nH]n3-c2ccccc2)cn1 [Compound I-5]", "IC50": "30 to 90 µM"}
{"compound": "COc1cc(-n2[nH]c(=O)c3cnc(NC(=O)C4CC4)cc32)ccc1C#N [Compound I-82]", "IC50": "10 to 30 µM"}
{"compound": "COc1cccc(-n2[nH]c(=O)c3cnc(Nc4cc(C)nc(C)n4)c(F)c32)c1 [Compound I-24]", "IC50": "> 90 µM"}
{"compound": "COc1cccc(-n2[nH]c(=O)c3cnc(Nc4ccccn4)cc32)c1 [Compound I-50]", "IC50": "< 10 µM"}
{"compound": "COc1c(Cl)cccc1-n1[nH]c(=O)c2cnc(Nc3cc(C)nc(C)n3)cc21 [Compound I-101]", "IC50": "> 90 µM"}
{"compound": "Cc1cc(Nc2cc3c(cn2)c(=O)[nH]n3-c2ccc(Cl)c(Cl)c2)nc(C)n1 [Compound I-85]", "IC50": "> 90 µM"}
{"compound": "COc1ccc(Nc2cc3c(cn2)c(=O)[nH]n3-c2cccc(OC)c2)nc1 [Compound I-41]", "IC50": "< 10 µM"}
{"compound": "Cc1cc(Nc2cc3c(cn2)c(=O)[nH]n3-c2cccc(C(=O)NCc3ccccn3)c2)nc(C)n1 [Compound I-118]", "IC50": "> 90 µM"}
{"compound": "Cc1cc(Nc2cc3c(cn2)c(=O)[nH]n3-c2cccc(C#N)c2)nc(C)n1 [Compound I-18]", "IC50": "10 to 30 µM"}
{"compound": "Cc1cc(Nc2cc3c(cn2)c(=O)[nH]n3-c2ccc(C(F)(F)F)cc2)nc(C)n1 [Compound I-66]", "IC50": "< 10 µM"}

// next entry
Q: I am curious: what IC50 value has been reported for COc1cccc(-n2[nH]c(=O)c3cnc(Nc4cc(C)nc(C)n4)cc32)c1 [Compound I-17] ?
A: < 10 µM
